tested on: follistatin; assay: Follistatin mRNA expression in HepG2 cells; format: cell-based, human; conditions: HepG2 cells, Experiment 1, basal (no insulin), four hours; UTC = 100
In the oligonucleotide strings, read from the 5' end, every base follows the letter of its sugar. An asterisk marks phosphorothioate; unmarked linkages are phosphodiester. Other units and linkages are bracketed, terminal groups are in braces. A string of capitals states the bases alone. e = 2'-O-(2-methoxyethyl) (MOE); [5mC] = 5-methylcytosine
Overview of reported Follistatin mRNA across a group of substances:

{"substance": "327873 (antisense e[5mC]*eT*eA*e[5mC]*e[5mC]*eA*eT*eA*eG*eG*eG*eT*eA*eA*eA*eA*e[5mC]*e[5mC]*eA*e[5mC]*eT) [compound 327873]", "assayedTarget": "follistatin", "Follistatin mRNA": 97}
{"substance": "327958 (antisense e[5mC]*e[5mC]*eG*eG*e[5mC]*eT*eG*e[5mC]*eA*eA*e[5mC]*eA*e[5mC]*eA*eA*eG*eA*e[5mC]*eA*e[5mC]*eG*eA) [compound 327958]", "assayedTarget": "follistatin", "Follistatin mRNA": 91}
{"substance": "327949 (antisense e[5mC]*eA*e[5mC]*eA*eA*eA*eT*eT*e[5mC]*eG*eG*eA*eT*e[5mC]*eT*eA*e[5mC]*eA*eG*eG*eG*eT*eA) [compound 327949]", "assayedTarget": "follistatin", "Follistatin mRNA": 112}
{"substance": "341804 (antisense ATCTGCACTGTCAGCACTTT; all 2'-MOE, all phosphorothioate, methylation of C not given here) [compound 341804]", "assayedTarget": "follistatin", "Follistatin mRNA": 63}
{"substance": "341807 (antisense CTGGGACTTTGTAGGCCAGTT; all 2'-MOE, all phosphorothioate, methylation of C not given here) [compound 341807]", "assayedTarget": "follistatin", "Follistatin mRNA": 102}
{"substance": "327963 (antisense eA*eA*e[5mC]*e[5mC]*eT*eA*eT*e[5mC]*e[5mC]*eT*eG*eA*eA*eT*eT*eA*e[5mC]*eT*eT*eG*eA*eA) [compound 327963]", "assayedTarget": "follistatin", "Follistatin mRNA": 101}
{"substance": "327899 (antisense e[5mC]*eA*eG*eT*eG*eA*eA*eT*eT*e[5mC]*eT*eA*e[5mC]*e[5mC]*eA*eG*eT*eG*e[5mC]*e[5mC]*eA*eT*eA) [compound 327899]", "assayedTarget": "follistatin", "Follistatin mRNA": 66}
{"substance": "327893 (antisense eA*eA*e[5mC]*e[5mC]*eA*e[5mC]*eA*e[5mC]*eA*eA*e[5mC]*e[5mC]*eT*eA*e[5mC]*eT*eA*e[5mC]*e[5mC]*eT*e[5mC]*eA) [compound 327893]", "assayedTarget": "follistatin", "Follistatin mRNA": 93}
{"substance": "341801 (antisense CCUAUCUCCCCUCUGGACC; all 2'-MOE, all phosphorothioate, methylation of C and T or U not given here) [compound 341801]", "assayedTarget": "follistatin", "Follistatin mRNA": 85}
{"substance": "341806 (antisense GCCAATATTTCTGTGCTGCTA; all 2'-MOE, all phosphorothioate, methylation of C not given here) [compound 341806]", "assayedTarget": "follistatin", "Follistatin mRNA": 75}

###

tested on: BJ, B16-F10, T47D, T47Dp53 and HeLa cells; assay: Cell cycle assay (propidium iodide flow cytometry), cell line panel; type: cell-based; settings: 150 nM oligomeric compound, 4.5 μg/ml LIPOFECTIN, after 72 hours, propidium iodide flow cytometry
In the oligonucleotide strings, read from the 5' end, every base follows the letter of its sugar. An asterisk marks phosphorothioate; unmarked linkages are phosphodiester. Other units and linkages are bracketed, terminal groups are in braces. A string of capitals states the bases alone. e = 2'-O-(2-methoxyethyl) (MOE); [5mC] = 5-methylcytosine; d = 2'-deoxy (DNA)
Could you mark each record Fulfilled if its G1 (percentage of cells in phase of the cell cycle) falls strictly under 50%, and Not fulfilled if it equals or exceeds it?

{"substance": "340348 (antisense CTACCTGCACGAACAGCACTTT; all 2'-MOE, all phosphorothioate, methylation of C not given here) [compound 340348]", "category": "Not fulfilled"}
{"substance": "328396 (antisense e[5mC]*eT*eG*eG*eT*dT*dG*dG*dG*dT*dA*dT*dG*dA*dG*eA*e[5mC]*eA*eG*eA) [compound 328396]", "category": "Not fulfilled"}
{"substance": "NNNNNNNNNNNNNNNNNNNN [ISIS 29848, reference compound]", "category": "Not fulfilled"}
{"substance": "328382 (e[5mC]*eA*eG*eA*e[5mC]*dT*d[5mC]*d[5mC]*d[5mC]*dA*dA*d[5mC]*dT*dG*dA*e[5mC]*e[5mC]*eA*eG*eA) [compound 328382]", "category": "Not fulfilled"}
{"substance": "327909 (antisense e[5mC]*e[5mC]*e[5mC]*eA*eA*e[5mC]*eA*eA*e[5mC]*eA*eT*eG*eA*eA*eA*e[5mC]*eT*eA*e[5mC]*e[5mC]*eT*eA) [compound 327909]", "category": "Not fulfilled"}
{"substance": "327906 (antisense eT*e[5mC]*eA*eT*eA*eG*e[5mC]*e[5mC]*e[5mC]*eT*eG*eT*eA*e[5mC]*eA*eA*eT*eG*e[5mC]*eT*eG*e[5mC]*eT) [compound 327906]", "category": "Fulfilled"}

###

Below, each of the substances is paired with its reported % cells in cell cycle phase aneuploid value.
tested on: T47Dp53 cells; assay: Cell cycle assay in T47Dp53 cells; type: cell-based, human; conditions: 150 nM, 48 hours, relative to untreated control
In the oligonucleotide strings, read from the 5' end, every base follows the letter of its sugar. An asterisk marks phosphorothioate; unmarked linkages are phosphodiester. Other units and linkages are bracketed, terminal groups are in braces. A string of capitals states the bases alone. e = 2'-O-(2-methoxyethyl) (MOE); [5mC] = 5-methylcytosine; d = 2'-deoxy (DNA)

{"substance": "328403 (antisense eA*eG*eG*e[5mC]*e[5mC]*dT*dA*dT*dT*d[5mC]*d[5mC]*dT*dG*dT*dA*eG*e[5mC]*eA*eA*eA) [compound 328403]", "% cells in cell cycle phase aneuploid [%]": 89}
{"substance": "328759 (antisense eG*eA*eG*eG*eG*dA*dT*dT*dG*dT*dA*dT*dG*dA*dA*e[5mC]*eA*eT*e[5mC]*eT) [compound 328759]", "% cells in cell cycle phase aneuploid [%]": 109}
{"substance": "327902 (antisense eG*eG*e[5mC]*eT*eG*eT*e[5mC]*eA*eA*eT*eT*e[5mC]*eA*eT*eA*eG*eG*eT*e[5mC]*eA*eG) [compound 327902]", "% cells in cell cycle phase aneuploid [%]": 97}
{"substance": "328744 (antisense e[5mC]*eG*eG*eA*eT*d[5mC]*d[5mC]*dT*dG*dT*dT*dA*d[5mC]*d[5mC]*dT*e[5mC]*eA*e[5mC]*e[5mC]*eA) [compound 328744]", "% cells in cell cycle phase aneuploid [%]": 100}
{"substance": "327905 (antisense e[5mC]*eA*eG*eA*e[5mC]*eT*e[5mC]*e[5mC]*eG*eG*eT*eG*eG*eA*eA*eT*eG*eA*eA*eG*eG*eA) [compound 327905]", "% cells in cell cycle phase aneuploid [%]": 103}

###

This listing pairs substances with measured % cells in cell cycle phase: G1.
test system: HeLa cells; assay: Cell cycle assay in HeLa cells; format: cell-based, human; details: HeLa cells, 150 nM oligomeric compound, 48 hours after treatment; relative to untreated control (UTC=100)
In the oligonucleotide strings, read from the 5' end, every base follows the letter of its sugar. An asterisk marks phosphorothioate; unmarked linkages are phosphodiester. Other units and linkages are bracketed, terminal groups are in braces. A string of capitals states the bases alone. e = 2'-O-(2-methoxyethyl) (MOE); [5mC] = 5-methylcytosine; d = 2'-deoxy (DNA)
experimentalReadout: % cells in cell cycle phase: G1 (%)

{"substance": "338750 (antisense TCCGCGGGGGCGGGGAGGCT; all 2'-MOE, all phosphorothioate, methylation of C not given here) [compound 338750]", "experimentalReadout": "% cells in cell cycle phase: G1", "result": 99}
{"substance": "328396 (antisense e[5mC]*eT*eG*eG*eT*dT*dG*dG*dG*dT*dA*dT*dG*dA*dG*eA*e[5mC]*eA*eG*eA) [compound 328396]", "experimentalReadout": "% cells in cell cycle phase: G1", "result": 89}
{"substance": "328424 (antisense eA*eG*eG*eA*eA*dG*d[5mC]*dA*d[5mC]*dA*d[5mC]*dA*dT*dT*dA*eT*e[5mC]*eA*e[5mC]*eA) [compound 328424]", "experimentalReadout": "% cells in cell cycle phase: G1", "result": 103}
